Just for reference, the supplement of paper PMC9170038 is where these values come from.

# Test system: MS2 coat protein
# Run description: apparent KD of MS2 coat protein; designed switch direction (-1 OFF switch, 1 ON switch): -1; higher = weaker reporter binding
# Experimental context: input ligand: none
Answer FALSE if apparent KD of MS2 coat protein is under 40 nM, and TRUE if it is 40 nM or more.

Use the examples below as a reference point.
1) AAAAAGUGAGGAUAUACAUGAGGAUCACCCAUGUAAUAAAAAAAAAGGGUGGAAGAAAGUAGAAGGCACCAAAA [Ex 3 May 48] (Eterna round: R96, puzzle: Exclusion 3) | TRUE
2) GACCUCACUGUAGGAUAUGACCGAUCCAGAGGAUCAGAAGGACAUGAGGAUCACCCAUGUGCGUGGAGGGAACGUAAGAAACAA [Eternabot solution 2] (Eterna round: R96, puzzle: Exclusion NG 1) | TRUE
3) UCCACACAUGAGGAUCACCCAUGUCAGGAUAUCUUUAGGGACUAUGGUUAUUCCUAAUAGAGAAGGGACAUAUU [EX1 B.27] (Eterna round: R97, puzzle: Exclusion 1) | FALSE
4) GCUUGUCGAGGAUAUGCAUACACUGGAUACAGUGGAAGGUCACAUGAGGAUCACCCAUGUAGAAGGCGACGAGC [EX2 #39] (Eterna round: R97, puzzle: Exclusion 2) | TRUE
5) AUUUAGCAAGCCAGAUCCUACAUGAGGAUCACCCAUGUAGUUCGUCUUAUUUGAAGACAACACAAAAGUGUUGUCUU [Omei Mir OFFv1 B6] (Eterna round: R97, puzzle: Sensor, turn-off variant 1) | FALSE

In plain terms: is recorded apparent KD of MS2 coat protein at least 40 nM for GUAAACGAUCAGGAUAUAUCAAAUCAUAGCUUGAUAGAAGGGAUCACAUGAGGAUCACCCAUGUGAUCUUCUUU [jl-ex6-4.15 ViennaUCT mod] (Eterna round: R97, puzzle: Exclusion 6) ?
FALSE

In plain terms: is recorded apparent KD of MS2 coat protein at least 40 nM for CCAUAUAACACAGGAUAUCAUCGCAACUGACGUUGAGAAGGGUGACAUGAGGAUCACCCAUGUGAUUUCUCAAUAUUAUACAUC [Prohibition 81 - Jieux - Exclusion NG 1] (Eterna round: R96, puzzle: Exclusion NG 1) ?
TRUE

In plain terms: is recorded apparent KD of MS2 coat protein at least 40 nM for CGCCCGGGAGGAUAUCCAAUAUAUGACAUGAGGAUCACCCAUGUUUCCACUCGUACCUCCGGAGAAGGCCCGGCGA [Ex5 #28] (Eterna round: R97, puzzle: Exclusion 5) ?
FALSE

In plain terms: is recorded apparent KD of MS2 coat protein at least 40 nM for CAACAUGGACCUCGCUCCGACAUGAGGAUCACCCAUGUUGGAACCUUACUGGCGUCGAGUGUUGCUCGUCUUACCGU [Eternabot (Original) Solution 10] (Eterna round: R97, puzzle: Sensor, turn-off variant 1) ?
TRUE

In plain terms: is recorded apparent KD of MS2 coat protein at least 40 nM for GCGCUGUCAGGAUAUGUGUGUGUGUGUGAAAGCGCGCGCGCGCAGAAGGGACAUGAGGAUCACCCAUGUGGUGU [-31.2, -30.2 kcal, A 20%, 6bis-6bis] (Eterna round: R97, puzzle: Exclusion 4) ?
TRUE
